Biological target: human GLP-1R (Homo sapiens (Human))
Assay: GLP-1 assay with GLP1 endogenous agonist (calcium mobilization, EC20 GLP-1 peptide 7-36 amide)
Format: cell-based
Conditions: potentiation of EC20 GLP-1 7-36 amide; calcium flux
pEC50: −log10 of the molar value.
readout: pEC50

| compound | pEC50 |
| --- | --- |
| Cc1c2n(c3ccccc13)C(C(=O)NC[C@@H]1CCCN1C(C)C)CN(C1CCCC1)C2=O (some centres unmarked) [Compound 3] | 5.24 |

P: Cc1c2ccccc2n2c(C(=O)NC[C@H]3CCCN3C(C)C)cn([C@H]3CCOC3)c(=O)c12 [Compound 5]
Q: Cc1c2ccccc2n2c(C(=O)NCC3CCN3C(C)C)cn(C3CCCC3)c(=O)c12 (centres unmarked) [Compound 24]
R: CC(C)N1CCC[C@H]1CNC(=O)c1cn(C2CCCC2)c(=O)c2c(Cl)c3ccccc3n12 [Compound 10]
Req: Falling order of pEC50, please. To answer, arrange all of the labels according to the requested order.
Resp: R, P, Q
(R: 5.89, P: 5.38, Q: 4.92)

====

Target: UniProt P43220
Assay: GLP-1 assay with EX-4 synthetic agonist (calcium mobilization, EC20 EX-4)
Format: cell-based
Details: 30 μM compound; EC20 of EX-4; calcium flux
readout: Emax at 30 µM (%)

| compound | Emax at 30 µM, % |
| --- | --- |
| Cc1c2ccccc2n2c(C(=O)NC[C@H]3CCCN3C(C)C)cn([C@H]3CCOC3)c(=O)c12 [Compound 5] | 55 |
| Cc1c2cc(F)ccc2n2c(C(=O)NC[C@@H]3CCCN3C(C)C)cn(C3CCCC3)c(=O)c12 [Compound 6] | 54 |

A: CC(C)N1CCC[C@H]1CNC(=O)c1cn(C2CCCC2)c(=O)c2c(Br)c3ccccc3n12 [Compound 12]
B: Cc1c2n(c3ccccc13)[C@H](C(=O)NC[C@@H]1CCCN1C(C)C)CN(C1CCCC1)C2=O [Compound 9]
Req: Which of the two items, A and B , has the greater recorded Emax at 30 µM? Write down the label of the entry you select.
Resp: A
(A: 59%, B: 33%)

====

Molecular target: human GLP-1R (Homo sapiens (Human), UniProt P43220)
Sequence (P43220 24-463): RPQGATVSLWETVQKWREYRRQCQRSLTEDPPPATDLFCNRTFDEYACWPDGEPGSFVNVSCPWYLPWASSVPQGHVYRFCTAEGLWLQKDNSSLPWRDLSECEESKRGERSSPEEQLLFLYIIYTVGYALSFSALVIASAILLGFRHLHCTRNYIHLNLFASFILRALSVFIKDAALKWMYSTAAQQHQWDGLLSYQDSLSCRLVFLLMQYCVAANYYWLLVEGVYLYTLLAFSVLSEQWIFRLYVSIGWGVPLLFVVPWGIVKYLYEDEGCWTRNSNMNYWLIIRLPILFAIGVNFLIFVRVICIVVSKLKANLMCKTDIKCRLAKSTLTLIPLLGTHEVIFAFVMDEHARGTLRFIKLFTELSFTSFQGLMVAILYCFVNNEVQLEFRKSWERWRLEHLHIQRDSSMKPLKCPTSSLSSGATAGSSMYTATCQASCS
Test: GLP-1 assay with EX-4 synthetic agonist (calcium mobilization, EC20 EX-4)
Type: cell-based
Details: potentiation of EC20 EX-4; calcium flux; read-out: GLP1 EC50 (Ex-4 synthetic agonist)
pEC50: −log10 of the molar value.
readout: pEC50

1: Cc1c2ccccc2n2c(C(=O)NC[C@@H]3CCCN3C(C)C)cn([C@H]3CCOC3)c(=O)c12
2: Cc1c2cc(F)ccc2n2c(C(=O)NC[C@@H]3CCCN3C(C)C)cn(C3CCCC3)c(=O)c12
Req: // compare: 1 vs 2 , metric pEC50, want the smaller Write down the label of the entry you select.
Resp: 2
(2: 5.21, 1: 5.54)

====

Biological target: human GLP-1R (Homo sapiens (Human))
Experiment: GLP-1 assay with GLP1 endogenous agonist (calcium mobilization, EC20 GLP-1 peptide 7-36 amide)
Assay type: cell-based
Settings: 30 μM compound; EC20 of GLP-1 7-36 amide; calcium flux
Text: A. GLP-1 Assay with GLP1 Endogenous Agonist To assess the effects of test compounds on GLP-1 or glucagon potency and efficacy, a high-throughput calcium mobilization assay was used essentially as previously described (Morris L C, Days E L, Turney M, Mi D, Lindsley C W, Weaver C D, Niswender K D, A Duplexed High-Throughput Screen to Identify Allosteric Modulators of the Glucagon-Like Peptide 1 and Glucagon Receptors. J. Biomol. Screen. 2014 Feb. 13, 19(6):847-858). […]
readout: Emax at 30 µM (%)

Examples with their reported Emax at 30 µM follow.
| compound | unitAbbrev | Emax at 30 µM |
| --- | --- | --- |
| CC(C)N1CCC[C@H]1CNC(=O)c1cn(C2CCCC2)c(=O)c2c(Br)c3ccccc3n12 | % | 53 |
| CC(C)N1CCC[C@H]1CNC(=O)c1cn(C2CCCC2)c(=O)c2c(Cl)c3ccccc3n12 | % | 61 |
| CC(C)N1CCC[C@H]1CNC(=O)c1cn(C2CCCC2)c(=O)c2c(C#N)c3ccccc3n12 | % | 43 |
| CC(C)N1CCC[C@@H]1CNC(=O)c1cn(C2CCCC2)c(=O)c2c(Cl)c3ccccc3n12 | % | 44 |

A: Cc1c2ccccc2n2c(C(=O)NC[C@@H]3CCCN3C(C)C)cn(C3CCCC3)c(=O)c12
B: Cc1c2ccccc2n2c(C(=O)NC[C@@H]3CCCN3C(C)C)cn(-c3cccnc3)c(=O)c12
Req: // compare: A vs B , metric Emax at 30 µM, want the smaller Write down the label of the entry you select.
Resp: B
(B: 36%, A: 57%)

P: Cc1c2ccccc2n2c(C(=O)NC[C@H]3CCCN3C(C)C)cn([C@H]3CCOC3)c(=O)c12
Q: Cc1c2ccccc2n2c(C(=O)NC[C@@H]3CCCN3C(C)C)cn(-c3cnn(C)c3)c(=O)c12
Req: Which of the two items, P and Q , has the greater recorded Emax at 30 µM? Write down the label of the entry you select.
Resp: P
(P: 56%, Q: 34%)

====

Molecular target: human GLP-1R (Homo sapiens (Human))
Test: GLP-1 assay with EX-4 synthetic agonist (calcium mobilization, EC20 EX-4)
Type: cell-based
Conditions: potentiation of EC20 EX-4; calcium flux; read-out: GLP1 EC50 (Ex-4 synthetic agonist)
readout: EC50 (µM)

Examples with their reported EC50 follow.
| structureNotation | unitAbbrev | EC50 |
| --- | --- | --- |
| Cc1c2n(c3ccccc13)[C@@H](C(=O)NC[C@@H]1CCCN1C(C)C)CN(C1CCCC1)C2=O | µM | 3.6 |
| Cc1c2ccccc2n2c(C(=O)NC[C@H]3CCCN3C(C)C)cn([C@H]3CCOC3)c(=O)c12 | µM | 5.9 |
| CC(C)N1CCC[C@H]1CNC(=O)c1cn(C2CCCC2)c(=O)c2c(Br)c3ccccc3n12 | µM | 3.6 |

A: Cc1c2ccccc2n2c(C(=O)NC[C@@H]3CCCN3C(C)C)cn(C3CCCC3)c(=O)c12
B: CC(C)N1CCC[C@H]1CNC(=O)c1cn(C2CCCC2)c(=O)c2c(Cl)c3ccccc3n12
Req: Which of the two items, A and B , has the greater recorded EC50? Write down the label of the entry you select.
Resp: A

====

Target: UniProt:P43220
Assay: GLP-1 assay with GLP1 endogenous agonist (calcium mobilization, EC20 GLP-1 peptide 7-36 amide)
Format: cell-based
Conditions: 30 μM compound; EC20 of GLP-1 7-36 amide; calcium flux
readout: Emax at 30 µM (%)

Examples with their reported Emax at 30 µM follow.
| molecule | recordedNumber |
| --- | --- |
| Cc1c2ccccc2n2c(C(=O)NCC3CCN3C(C)C)cn(C3CCCC3)c(=O)c12 (stereo not shown) [Compound 24] | 51 |
| C=Cc1c2ccccc2n2c(C(=O)NC[C@@H]3CCCN3C(C)C)cn(C3CCCC3)c(=O)c12 [Compound 17] | 37 |

P: CC(C)N1CCC[C@@H]1CNC(=O)c1cn(C2CCCC2)c(=O)c2c(Br)c3ccccc3n12 [Compound 13]
Q: Cc1c2cc(F)ccc2n2c(C(=O)NC[C@@H]3CCCN3C(C)C)cn(C3CCCC3)c(=O)c12 [Compound 6]
Req: Which of the two items, P and Q , has the greater recorded Emax at 30 µM? Write down the label of the entry you select.
Resp: Q
(Q: 60%, P: 39%)

====

Target: human GLP-1R (Homo sapiens (Human))
Experiment: GLP-1 assay with GLP1 endogenous agonist (calcium mobilization, EC20 GLP-1 peptide 7-36 amide)
Type: cell-based
Settings: potentiation of EC20 GLP-1 7-36 amide; calcium flux
pEC50: −log10 of the molar value.
readout: pEC50

Examples with their reported pEC50 follow.
| compound | testSystem | readout | result |
| --- | --- | --- | --- |
| Cc1c2cc(F)ccc2n2c(C(=O)NC[C@H]3CCCN3C(C)C)cn(C3CCCC3)c(=O)c12 | human GLP-1R (Homo sapiens (Human)) | pEC50 | < 4.52 |
| Cc1c2ccccc2n2c(C(=O)O)cn(C3CCCC3)c(=O)c12 | human GLP-1R (Homo sapiens (Human)) | pEC50 | < 4.52 |
| CC(C)N1CCC[C@@H]1CNC(=O)c1cn(C2CCCC2)c(=O)c2c(Cl)c3ccccc3n12 | human GLP-1R (Homo sapiens (Human)) | pEC50 | < 4.52 |
| Cc1c2ccccc2n2c(C(=O)NC[C@H]3CCCN3C(C)C)cn(-c3cnn(C)c3)c(=O)c12 | human GLP-1R (Homo sapiens (Human)) | pEC50 | < 4.52 |
| Cc1c2ccccc2n2c(C(=O)NCC3CCN3)cn(C3CCCC3)c(=O)c12 (centres unmarked) | human GLP-1R (Homo sapiens (Human)) | pEC50 | < 4.52 |
| CC(C)N1CCC[C@H]1CNC(=O)c1cn(C2CCCC2)c(=O)c2c(Br)c3ccccc3n12 | human GLP-1R (Homo sapiens (Human)) | pEC50 | 5.66 |

Req: Provide pEC50 value for the following compound: Cc1c2ccccc2n2c(C(=O)NC[C@H]3CCCN3C(C)C)cn(-c3cccnc3)c(=O)c12
Resp: < 4.52

Req: Provide pEC50 value for the following compound: Cc1c2ccccc2n2c(C(=O)NC[C@@H]3CCCN3C(C)C)cn(C3CCCC3)c(=O)c12
Resp: 5.57
